solubility values, listed per item
- TEST DESCRIPTION: Solubility at pH 6.8
- Assay type: physicochemical
- SETTINGS: pH 6.8, aqueous buffer, thermodynamic from solid; read-out: solubility
- From the text: The physicochemical properties of relevance for the absorption of the compound, such as the solubility and the membrane permeability, especially at a pH close to neutral pH can be measured using the procedure as described by L. ZHOU et al. in JOURNAL OF PHARMACEUTICAL SCIENCES, VOL. 96, NO. 11, p. 3052-3071 (2007) for the solubility at pH 6.8 and the procedure as described by F. Wohnsland and B. Faller in Journal of Medicinal Chemistry Vol 44, p. […]

Examples with their reported solubility follow.
CHEMICAL STRING: Cc1nn(C)cc1-n1c(=O)n(C)c2cnc3ccc(-c4ccc(N5CCN(C)CC5)nc4)cc3c21
RESULT: > 469 µg/mL
--
CHEMICAL STRING: CCn1cc(-n2c(=O)n(C)c3cnc4ccc(-c5cnc(COC)c(OC)c5)cc4c32)c(C)n1
RESULT: > 459 µg/mL

// field: solubility; key: Cc1nn(C)cc1-n1c(=O)n(C)c2cnc3ccc(-c4cncc(C(C)(C)O)c4)cc3c21 ; value = > 428 µg/mL
